# Tested on: LoVo
# assay details: cells
# Type: functional, cell-based
# experimental conditions: Homo sapiens, 72 h
# Description: Antiproliferative activity against human LoVo cells assessed as inhibition of cell proliferation incubated for 72 hrs by SRB assay
Documented IC50 across a set of compounds
Answer format: numeric, nM implied, no suffix.

q: GET /values?readout=IC50&item= CCCCCN[C@H]1CCc2cc(OC)c(OC)c(OC)c2-c2ccc(SC)c(=O)cc21
a: 52.8

q: GET /values?readout=IC50&item= COc1cc2c(c(OC)c1OC)-c1ccc(SC)c(=O)cc1[C@@H](NCCc1ccccc1)CC2
a: 10.7

q: GET /values?readout=IC50&item= CCCN[C@H]1CCc2cc(OC)c(OC)c(OC)c2-c2ccc(SC)c(=O)cc21
a: 8.5

q: GET /values?readout=IC50&item= COc1cc2c(c(OC)c1OC)-c1ccc(SC)c(=O)cc1[C@@H](NCCC(C)C)CC2
a: 8.4

q: GET /values?readout=IC50&item= CCCCN[C@H]1CCc2cc(OC)c(OC)c(OC)c2-c2ccc(SC)c(=O)cc21
a: 8.8

q: GET /values?readout=IC50&item= COc1cc2c(c(OC)c1OC)-c1ccc(SC)c(=O)cc1[C@@H](NCc1ccccc1)CC2
a: 7.9

q: GET /values?readout=IC50&item= CCCC(C)CN[C@H]1CCc2cc(OC)c(OC)c(OC)c2-c2ccc(SC)c(=O)cc21 (some centres not stated)
a: 12

---

# assay details: cells
# Type: functional, cell-based
# experimental conditions: Homo sapiens, LoVo/DX, 72 h
# Description: Antiproliferative activity against human Lovo/DX cells assessed as inhibition of cell proliferation incubated for 72 hrs by SRB assay
quantity measured: IC50 (nM)
Answer format: numeric, nM implied, no suffix.

# smiles string, IC50 / nM
measured = [
    ("CCCCCCCCN[C@H]1CCc2cc(OC)c(OC)c(OC)c2-c2ccc(SC)c(=O)cc21", 693),
]

q: GET /values?readout=IC50&item= COc1cc2c(c(OC)c1OC)-c1ccc(OC)c(=O)cc1[C@@H](NC(C)=O)CC2
a: 967

q: GET /values?readout=IC50&item= CCCCN[C@H]1CCc2cc(OC)c(OC)c(OC)c2-c2ccc(SC)c(=O)cc21
a: 17.9

q: GET /values?readout=IC50&item= COc1cc2c(c(OC)c1OC)-c1ccc(SC)c(=O)cc1[C@@H](NCc1ccc(I)cc1)CC2
a: 234

q: GET /values?readout=IC50&item= COc1cc(CN[C@H]2CCc3cc(OC)c(OC)c(OC)c3-c3ccc(SC)c(=O)cc32)ccc1O
a: 85.6

q: GET /values?readout=IC50&item= CCCN[C@H]1CCc2cc(OC)c(OC)c(OC)c2-c2ccc(SC)c(=O)cc21
a: 31.1

q: GET /values?readout=IC50&item= CCN[C@H]1CCc2cc(OC)c(OC)c(OC)c2-c2ccc(SC)c(=O)cc21
a: 54.9

q: GET /values?readout=IC50&item= COc1cc2c(c(OC)c1OC)-c1ccc(SC)c(=O)cc1[C@@H](NCc1ccccc1O)CC2
a: 41.7

q: GET /values?readout=IC50&item= COc1ccc(CN[C@H]2CCc3cc(OC)c(OC)c(OC)c3-c3ccc(SC)c(=O)cc32)cc1O
a: 69.4

---

Documented pIC50 across a set of molecules
# System: BALB/3T3
# assay details: Cytotoxicity against mouse BALB/3T3 cells assessed as reduction in cell viability incubated for 72 hrs by SRB assay
# Format: ADME, cell-based
# experimental conditions: BALB/3T3, 72 h
# pIC50 = -log10(concentration in molar units)

q: GET /values?readout=pIC50&item= COc1cc2c(c(OC)c1OC)-c1ccc(SC)c(=O)cc1[C@@H](NCCc1ccccc1)CC2
a: 7.21

q: GET /values?readout=pIC50&item= COc1cc2c(c(OC)c1OC)-c1ccc(SC)c(=O)cc1[C@@H](NCCC(C)C)CC2
a: 7.88

q: GET /values?readout=pIC50&item= CCCCCCCCCCCCN[C@H]1CCc2cc(OC)c(OC)c(OC)c2-c2ccc(SC)c(=O)cc21
a: 5.97

Data credit: ChEMBL document CHEMBL5030546
